meta.source: PubChem BioAssay (NCI)

TGI by entry:
Test system: TK-10 renal
PROTOCOL_NOTES: NCI tumour cell line growth inhibition, 48 h

1. CCCCNc1nc(SC)nc2nc[nH]c12: > 100 µM
2. C=CC(=O)Nc1cc2c(Nc3ccc(OCc4ccccn4)c(Cl)c3)ncnc2cc1OCCN1CCOCC1: > 100 µM
3. C=C1C(=O)C=C2C=C3C(=O)C(C)(C)C[C@]3(O)C12C (stereo partly drawn): 3.42 µM
4. NC(C(=O)O)C(N)C(=O)O (stereo not drawn): > 100 µM
5. COc1ccc(/C=N/NC(=O)O)cc1: > 100 µM

Ask: // fetch TGI; item: O=C(NCCNCCO)c1ccc2oc3cc4ccccc4c(=O)n3c2c1 ; system: TK-10 renal
Result: 20.3 µM

Ask: // fetch TGI; item: CN(C)CC1(C)CC/C(=C\c2ccc3c(c2)OCO3)C1=O (stereo not drawn) ; system: TK-10 renal
Result: > 100 µM

Ask: // fetch TGI; item: N#CC1=C(N)Oc2c(sc3c(F)cccc23)C1c1ccc([N+](=O)[O-])cc1 (stereo not drawn) ; system: TK-10 renal
Result: 3.12 µM

Ask: // fetch TGI; item: C=C1CC2(OC1=O)c1ccccc1CCc1ccccc12 ; system: TK-10 renal
Result: 7.09 µM

Ask: // fetch TGI; item: CC(NC1CCC[C@H]1O)c1ccccc1 (mixture of isomers) ; system: TK-10 renal
Result: > 100 µM

Ask: // fetch TGI; item: O=C1CCC(=O)c2cc(Br)ccc2N1 ; system: TK-10 renal
Result: > 100 µM

Ask: // fetch TGI; item: N/C(=N\C(=S)N1CCCCC1)N1CCCCC1 ; system: TK-10 renal
Result: > 100 µM

Ask: // fetch TGI; item: C/C=C(/C)C(=O)OC1C=C(CO)C(=O)C(OC(=O)/C(C)=C\C)C1C(C)C (stereo not drawn) ; system: TK-10 renal
Result: 2.79 µM

Ask: // fetch TGI; item: CC[n+]1[b-](C(C)(C)C)n(/N=C(\C)C(C)(C)C)[b-](C(C)(C)C)[n+]1CC ; system: TK-10 renal
Result: > 100 µM

Ask: // fetch TGI; item: Nc1nc(Cl)cc(Nc2ccc3c(c2)CCC3)n1 ; system: TK-10 renal
Result: > 100 µM

Ask: // fetch TGI; item: COc1cc2c(cc1OC)-c1c(cc(OC)c(OC)c1OC)C2=O ; system: TK-10 renal
Result: > 100 µM

Ask: // fetch TGI; item: Cc1c(-c2ccccc2)n(C)c2cn[nH]c(=O)c12 ; system: TK-10 renal
Result: > 100 µM

Ask: // fetch TGI; item: O=C1C(Nc2ccccn2)=C(I)C(=O)c2ncccc21 ; system: TK-10 renal
Result: 3.65 µM
